Source listed as patent US8475804B2.

# System: Ebola virus
# Assay Protocol: microbe, parasite or virus in culture
# Type: cell-based, Ebolavirus (EBOV)
# Condition Set: Zaire ebolavirus, Vero, read-out: Max Effect
Structures can show the parent of a compound that is named as a salt.
The label depends only on Emax: T if it is at least 60%, F if it is smaller.

Fc1ccc(C(OCCN2CCN(CCCc3ccccc3)CC2)c2ccc(F)cc2)cc1 | F
COc1ccc(C[C@H](N)C(=O)N[C@H]2[C@@H](O)[C@H](n3cnc4c(N(C)C)ncnc43)O[C@@H]2CO)cc1 [Puromycin dihydrochloride] | T
NC(=O)c1cn([C@@H]2O[C@H](CO)[C@@H](O)[C@H]2O)c2ncnc(N)c12 [Sangivamycin Hydrate] | T
COc1c(C)c2c(c(O)c1C/C=C(\C)CCC(=O)OCCN1CCOCC1)C(=O)OC2 [Mycophenolate Mofetil] | T

Would you kindly look at the next entry?
Query: hey, is Emax for this one >= 60%? "CC/C(=C(/CC)c1ccc(O)cc1)c1ccc(O)cc1"
Response: F
